- study system: NHERF4_4, Q86UT5
- Sequence (Q86UT5 464-550): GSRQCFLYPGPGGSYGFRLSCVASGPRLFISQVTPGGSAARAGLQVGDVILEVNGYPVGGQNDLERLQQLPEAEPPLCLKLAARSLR
- assay comment: holdup assay
- Parameters: key: below the threshold = too weak to quantify, mostly under pKd 3.1 to 4
- run parameters: plain residues with an end cap or a label only (N-terminal biotin on a linker: ado-ado)
measured quantity: pKd

Below: 5 binders and their reported pKd.
[
  {
    "binder": "DPAESMESLV [PTPRG, P23470]",
    "experimental result": 3.75
  },
  {
    "binder": "DGVNEKVSCV [HTR2A, P28223]",
    "experimental result": "below the threshold"
  },
  {
    "binder": "DTKNYKQTSV [CRIPT, Q9P021]",
    "experimental result": "below the threshold"
  },
  {
    "binder": "QSYPSKHDYV [CLDN18, P56856]",
    "experimental result": 4.03
  },
  {
    "binder": "NIAESLESLV [PTPRZ1, P23471]",
    "experimental result": "below the threshold"
  }
]

Query: If you can, please state the reported pKd value of ILRKSTTTTV [PRR16, Q569H4] .
Reply: below the threshold

Query: If you can, please state the reported pKd value of NTLNRKTTPV [CACNG8, Q8WXS5] .
Reply: 3.99

Query: If you can, please state the reported pKd value of PYPTADHMLA [JUP, P14923] .
Reply: below the threshold

Query: If you can, please state the reported pKd value of VLYPREGTEV [FOXI1, Q12951] .
Reply: below the threshold

Query: If you can, please state the reported pKd value of ELSATVTTDC [TRIP6, Q15654] .
Reply: below the threshold

Query: If you can, please state the reported pKd value of SFISKKEWYV [NECTIN1, Q15223] .
Reply: below the threshold

Query: If you can, please state the reported pKd value of NISYRRESAI [KCNJ4, P48050] .
Reply: below the threshold

Query: If you can, please state the reported pKd value of NTANRRTTPV [CACNG2, Q9Y698] .
Reply: below the threshold

Query: If you can, please state the reported pKd value of IDESKKEWLI [CNTNAP2, Q9UHC6] .
Reply: below the threshold
